- system: IL-23 (human, p19/p40 heterodimer) (Homo sapiens, UniProt Q9NPF7;P29460 SEQ:20-189,SEQ:23-328)
- Sequence (Q9NPF7 20-189, chain 1 of 2): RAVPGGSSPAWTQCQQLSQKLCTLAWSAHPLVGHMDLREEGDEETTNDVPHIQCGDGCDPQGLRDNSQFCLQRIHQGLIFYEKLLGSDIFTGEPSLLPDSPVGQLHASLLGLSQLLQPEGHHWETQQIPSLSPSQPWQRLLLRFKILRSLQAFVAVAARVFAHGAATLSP
- Sequence (P29460 23-328, chain 2 of 2): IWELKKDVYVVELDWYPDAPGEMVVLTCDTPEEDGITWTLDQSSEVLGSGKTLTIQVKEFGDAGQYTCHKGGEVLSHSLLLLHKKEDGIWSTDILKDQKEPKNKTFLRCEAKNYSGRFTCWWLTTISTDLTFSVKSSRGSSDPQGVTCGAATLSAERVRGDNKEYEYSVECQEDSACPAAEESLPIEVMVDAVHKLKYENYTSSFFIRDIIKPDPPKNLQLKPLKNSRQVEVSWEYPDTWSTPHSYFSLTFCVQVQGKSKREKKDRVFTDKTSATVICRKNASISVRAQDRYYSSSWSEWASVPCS
- testMethodNotes: cell_activity; TransAM STAT3, PHA blasts
- conditionInfo: tags: R&D Systems
pIC50: −log10 of the molar value.
parameter: pIC50

binder: AMX91-H8 (ssRNA, 2'-F C and U, 2'-OH A and G) RNA: GGGAAAAGCGAAUCAUACACAAGAACGCAUAGUCGGAUUUACCGAUCAUUCUGUGCCUUCGUGACGCUCCGCCAGAGACCAACCGAGAA
qual: =
measured: 5.52
--
binder: AMX91-B5 (ssRNA, 2'-F C and U, 2'-OH A and G) RNA: GGGAAAAGCGAAUCAUACACAAGACAGUGUAUGAGGAAGAUUACUUCCAUUCCUGAGCGGUUUUCGCUCCGCCAGAGACCAACCGAGAA
qual: =
measured: 6.00
--
binder: AMX91-E3 (ssRNA, 2'-F C and U, 2'-OH A and G) RNA: GGGAAAAGCGAAUCAUACACAAGAUUACUCCGUUAGUGUCAGUUGACGGAGGGAGCGUACUAUUGCUCCGCCAGAGACCAACCGAGAA
qual: <
measured: 5.30
--
binder: AMX86-D6 (ssRNA, 2'-F C and U, 2'-OH A and G) RNA: GGGAAAAGCGAAUCAUACACAAGAUUAGGCGUCGUGACAAUAACUGGUCCACGAGCAUGUCAGUGCUCCGCCAGAGACCAACCGAGAA
qual: <
measured: 5.30
--
binder: AMX91-G1 (ssRNA, 2'-F C and U, 2'-OH A and G) RNA: GGGAAAAGCGAAUCAUACACAAGAUAUGUGCCUGGGAUGGACGACAUCCCCUGUCUAAGGAUAUGCUCCGCCAGAGACCAACCGAGAA
qual: =
measured: 5.70
--
binder: AMX91-F11 (ssRNA, 2'-F C and U, 2'-OH A and G) RNA: GGGAAAAGCGAAUCAUACACAAGACGCGUCAGGUCCACGCUGAAAUUUAUUUUCGGCAGUGUAAGCUCCGCCAGAGACCAACCGAGAA
qual: =
measured: 5.30
--
binder: AMX84-E12 (ssRNA, 2'-F C and U, 2'-OH A and G) RNA: GGGAAAAGCGAAUCAUACACAAGAAGUUUUUGUGCUCUGAGUACUCAGCGUCCGUAAGGGAUAUGCUCCGCCAGAGACCAACCGAGAA
qual: <
measured: 6.00
--
binder: AMX91-A6 (ssRNA, 2'-F C and U, 2'-OH A and G) RNA: GGGAAAAGCGAAUCAUACACAAGAUUGGCAAUGUGACCUUCAACCCUUUUCCCGAUGAACAGUGGCUCCGCCAGAGACCAACCGAGAA
qual: =
measured: 5.52
